system: HepG 2.2.15 cells; assay: Cytotoxicity, modified MTT method; assay type: cell-based; conditions: 50 % cytotoxicity concentration in HepG 2.2.15 cells; means of two independent experiments

- molecule: "CCCCC(=O)O[C@H]1CC[C@]2(C)[C@H]3C[C@@H](O)[C@@H]4[C@@H]([C@@]5(C)CCCC(C)(C)O5)CC[C@@]4(C)[C@]3(C)CC[C@H]2C1(C)C [Compound 12, 3-O-Valeryl panaxadiol]"
  value.units: "µM"
  relation.operator: ">"
  CC50: 1580
- molecule: "CC1(C)CCCC(C)(C2CCC3(C)C2C(O)CC2C4(C)CCC(OC(=O)c5cc6ccccc6s5)C(C)(C)C4CCC23C)O1 (stereo not drawn) [Compound 7, 3-O-Benzothiophene-2-carboxyl panaxadiol]"
  value.units: "µM"
  relation.operator: ">"
  CC50: 1690
- molecule: "CC(=O)OC1CC2(C)C(CC(O)C3C(C4(C)CCCC(C)(C)O4)CCC32C)C2(C)CCC(OC(C)=O)C(C)(C)C12 (stereo not drawn) [Compound 20, 3,6-O-Diacetyl-panaxatriol]"
  value.units: "µM"
  relation.operator: ">"
  CC50: 2100
- molecule: "CC(C)(CC(=O)O)CC(=O)O[C@H]1CC[C@]2(C)[C@H]3C[C@@H](O)[C@@H]4[C@@H]([C@@]5(C)CCCC(C)(C)O5)CC[C@@]4(C)[C@]3(C)CC[C@H]2C1(C)C [Compound 18, 3-O-(3′,3′-Dimethyl) glutaryl panaxadiol]"
  value.units: "µM"
  relation.operator: "="
  CC50: 314
- molecule: "CC1(C)CCC[C@](C)([C@H]2CC[C@]3(C)[C@@H]2[C@H](O)C[C@@H]2[C@@]4(C)CC[C@H](OC(=O)c5ccccc5)C(C)(C)[C@@H]4CC[C@]23C)O1 [Compound 8, 3-O-Benzoyl panaxadiol]"
  value.units: "µM"
  relation.operator: ">"
  CC50: 2000
- molecule: "CC1(C)CCCC(C)(C2CCC3(C)C2C(O)CC2C4(C)CCC(OC(=O)C5CCCC5)C(C)(C)C4CCC23C)O1 (stereo not drawn) [Compound 2, 3-O-Cyclopentanecarbonyl panaxadiol]"
  value.units: "µM"
  relation.operator: ">"
  CC50: 2140
- molecule: "CC1(C)CCCC(C)(C2CCC3(C)C2C(O)CC2C4(C)CCC(OC(=O)c5ccccc5O)C(C)(C)C4CCC23C)O1 (stereo not drawn) [Compound 9, 3-O-Salicyloyl panaxadiol]"
  value.units: "µM"
  relation.operator: "="
  CC50: 44.4
- molecule: "CC1(C)CCCC(C)(C2CCC3(C)C2C(O)CC2C4(C)CCC(OC(=O)c5cccnc5)C(C)(C)C4C(OC(=O)c4cccnc4)CC23C)O1 (stereo not drawn) [Compound 24, 3,6-O-Dinicotinoyl-panaxatriol]"
  value.units: "µM"
  relation.operator: "="
  CC50: 1650
- molecule: "CC1(C)CCCC(C)(C2CCC3(C)C2C(O)CC2C4(C)CCC(OC(=O)CCC(=O)O)C(C)(C)C4C(OC(=O)CCC(=O)O)CC23C)O1 (stereo not drawn) [Compound 21, 3,6-O-Disuccinyl panaxatriol]"
  value.units: "µM"
  relation.operator: ">"
  CC50: 1940
- molecule: "COCC(=O)OC1CC2(C)C(CC(O)C3C(C4(C)CCCC(C)(C)O4)CCC32C)C2(C)CCC(OC(=O)COC)C(C)(C)C12 (stereo not drawn) [Compound 25]"
  value.units: "µM"
  relation.operator: ">"
  CC50: 1500
- molecule: "CC1(C)CCCC(C)(C2CCC3(C)C2C(=O)CC2C4(C)CCC(OC(=O)c5cccs5)C(C)(C)C4CCC23C)O1 (stereo not drawn) [Compound 27]"
  value.units: "µM"
  relation.operator: ">"
  CC50: 2160
- molecule: "CC1(C)CCCC(C)(C2CCC3(C)C2C(O)CC2C4(C)CCC(OC(=O)CC5(CC(=O)O)CCCC5)C(C)(C)C4CCC23C)O1 (stereo not drawn) [Compound 19]"
  value.units: "µM"
  relation.operator: ">"
  CC50: 1730
- molecule: "CC(=O)OC1CCC2(C)C(CCC3(C)C2CC(O)C2C(C4(C)CCCC(C)(C)O4)CCC23C)C1(C)C (stereo not drawn) [Compound 1, 3-O-Acetly-panaxadiol]"
  value.units: "µM"
  relation.operator: ">"
  CC50: 2060
- molecule: "CC1(C)CCCC(C)(C2CCC3(C)C2C(=O)CC2C4(C)CCC(OC(=O)CCC(=O)O)C(C)(C)C4CCC23C)O1 (stereo not drawn) [Compound 28]"
  value.units: "µM"
  relation.operator: ">"
  CC50: 1940
- molecule: "CC(CC(=O)O)CC(=O)O[C@H]1CC[C@]2(C)[C@H]3C[C@@H](O)[C@@H]4[C@@H]([C@@]5(C)CCCC(C)(C)O5)CC[C@@]4(C)[C@]3(C)CC[C@H]2C1(C)C (stereo partly drawn) [Compound 17, 3-O-(3′-Methyl) diglutaryl panaxadiol]"
  value.units: "µM"
  relation.operator: "="
  CC50: 934
- molecule: "CC1(C)CCCC(C)(C2CCC3(C)C2C(O)CC2C4(C)CCC(OC(=O)c5cccs5)C(C)(C)C4C(OC(=O)c4cccs4)CC23C)O1 (stereo not drawn) [Compound 23, 3,6-O-Di(2′-thenoyl)-panaxatriol]"
  value.units: "µM"
  relation.operator: ">"
  CC50: 2090
- molecule: "CC1(C)CCCC(C)(C2CCC3(C)C2C(O)CC2C4(C)CCC(OC(=O)c5cccnc5)C(C)(C)C4CCC23C)O1 (stereo not drawn) [Compound 11, 3-O-Nicotinoyl panaxadiol]"
  value.units: "µM"
  relation.operator: "="
  CC50: 1150
- molecule: "CC1(C)CCCC(C)(C2CCC3(C)C2C(O)CC2C4(C)CCC(OC(=O)CCC(=O)O)C(C)(C)C4CCC23C)O1 (stereo not drawn) [Compound 14, 3-O-Succinyl panaxadiol]"
  value.units: "µM"
  relation.operator: "="
  CC50: 179
- molecule: "CC1(C)CCCC(C)(C2CCC3(C)C2C(O)CC2C4(C)CCC(OC(=O)c5ccco5)C(C)(C)C4CCC23C)O1 (stereo not drawn) [Compound 3, 3-O-(2′-Furoyl) panaxadiol]"
  value.units: "µM"
  relation.operator: "="
  CC50: 1180
- molecule: "CC1(C)CCC[C@](C)([C@H]2CC[C@]3(C)[C@@H]2[C@H](O)C[C@@H]2[C@@]4(C)CC[C@H](OC(=O)c5cc(O)c(O)c(O)c5)C(C)(C)[C@@H]4CC[C@]23C)O1 [Compound 10, 3-O-Galloyl panaxadiol]"
  value.units: "µM"
  relation.operator: "="
  CC50: 25.9
- molecule: "CC1(C)CCCC(C)(C2CCC3(C)C2C(O)CC2C4(C)CCC(OC(=O)CCCC(=O)O)C(C)(C)C4CCC23C)O1 (stereo not drawn) [Compound 15, 3-O-Glutaryl panaxadiol]"
  value.units: "µM"
  relation.operator: "="
  CC50: 86.6

---

system: HepG 2.2.15 cells; assay: Cytotoxicity, modified MTT method; type: cell-based; details: 50 % cytotoxicity concentration in HepG 2.2.15 cells; means of two independent experiments
quantity: CC50 (µM)

- compound: "CC1(C)CCCC(C)(C2CCC3(C)C2C(O)CC2C4(C)CCC(OC(=O)c5cccs5)C(C)(C)C4CCC23C)O1 (stereo not drawn)"
  quantity: "CC50"
  relation.operator: ">"
  numeric.result: 1910
- compound: "CCOCC(=O)O[C@H]1CC[C@]2(C)[C@H]3C[C@@H](O)[C@@H]4[C@@H]([C@@]5(C)CCCC(C)(C)O5)CC[C@@]4(C)[C@]3(C)CC[C@H]2C1(C)C"
  quantity: "CC50"
  relation.operator: "="
  numeric.result: 1490
- compound: "CC1(C)CCCC(C)(C2CCC3(C)C2C(O)CC2C4(C)CCC(OC(=O)c5ccco5)C(C)(C)C4C(OC(=O)c4ccco4)CC23C)O1 (stereo not drawn)"
  quantity: "CC50"
  relation.operator: "="
  numeric.result: 530

---

Recorded log10 of IC50 by entry
tested on: HBsAg secretion; assay: microbe, parasite or virus in culture; type: cell-based, Hepatitis B virus; conditions: HepG 2.2.15 cells; means of two independent experiments; read-out: HBsAg IC50
quantity: log10 of IC50 (log10 of the value in µM)

- compound: "CC1(C)CCCC(C)(C2CCC3(C)C2C(O)CC2C4(C)CCC(OC(=O)C5CCCC5)C(C)(C)C4CCC23C)O1 (stereo not drawn) [Compound 2, 3-O-Cyclopentanecarbonyl panaxadiol]"
  quantity: "log10 of IC50"
  numeric.result: 3.10
- compound: "CC1(C)CCCC(C)(C2CCC3(C)C2C(O)CC2C4(C)CCC(OC(=O)c5cccs5)C(C)(C)C4CCC23C)O1 (stereo not drawn) [Compound 4, 3-O-(2′-Thenoyl) panaxadiol]"
  quantity: "log10 of IC50"
  numeric.result: 1.49
- compound: "CCOCC(=O)O[C@H]1CC[C@]2(C)[C@H]3C[C@@H](O)[C@@H]4[C@@H]([C@@]5(C)CCCC(C)(C)O5)CC[C@@]4(C)[C@]3(C)CC[C@H]2C1(C)C [Compound 13, 3-O-2′-Ethyoxyl-acetyl panaxadiol]"
  quantity: "log10 of IC50"
  numeric.result: 2.77
- compound: "CC1(C)CCCC(C)(C2CCC3(C)C2C(O)CC2C4(C)CCC(OC(=O)c5ccco5)C(C)(C)C4CCC23C)O1 (stereo not drawn) [Compound 3, 3-O-(2′-Furoyl) panaxadiol]"
  quantity: "log10 of IC50"
  numeric.result: 2.92
- compound: "CC1(C)CCCC(C)(C2CCC3(C)C2C(O)CC2C4(C)CCC(OC(=O)c5cccnc5)C(C)(C)C4CCC23C)O1 (stereo not drawn) [Compound 11, 3-O-Nicotinoyl panaxadiol]"
  quantity: "log10 of IC50"
  numeric.result: 3.06
- compound: "CC1(C)CCCC(C)(C2CCC3(C)C2C(O)CC2C4(C)CCC(OC(=O)c5cccnc5)C(C)(C)C4C(OC(=O)c4cccnc4)CC23C)O1 (stereo not drawn) [Compound 24, 3,6-O-Dinicotinoyl-panaxatriol]"
  quantity: "log10 of IC50"
  numeric.result: 3.22
- compound: "CC(C)(CC(=O)O)CC(=O)O[C@H]1CC[C@]2(C)[C@H]3C[C@@H](O)[C@@H]4[C@@H]([C@@]5(C)CCCC(C)(C)O5)CC[C@@]4(C)[C@]3(C)CC[C@H]2C1(C)C [Compound 18, 3-O-(3′,3′-Dimethyl) glutaryl panaxadiol]"
  quantity: "log10 of IC50"
  numeric.result: 2.97
- compound: "CC1(C)CCCC(C)(C2CCC3(C)C2C(O)CC2C4(C)CCC(OC(=O)c5ccccc5O)C(C)(C)C4CCC23C)O1 (stereo not drawn) [Compound 9, 3-O-Salicyloyl panaxadiol]"
  quantity: "log10 of IC50"
  numeric.result: 1.64
- compound: "CC1(C)CCCC(C)(C2CCC3(C)C2C(O)CC2C4(C)CCC(OC(=O)CCCC(=O)O)C(C)(C)C4CCC23C)O1 (stereo not drawn) [Compound 15, 3-O-Glutaryl panaxadiol]"
  quantity: "log10 of IC50"
  numeric.result: 1.73
